Protocol: Half life of the compound in DMSO assessed as thermal isomerization by measuring E isomer level at 500 uM incubated for 48 hrs under dark condition by UV-Vis spectroscopy
Type: physicochemical
Property: half-life at 500 µM (h)

a: c1ccc(/N=N\c2ccc(CN3CCN([C@H]4CC[C@@H](c5ccccc5)CC4)CC3)cc2)cc1
b: c1ccc(/N=N\c2ccc(CN3CCN([C@H]4CC[C@@H](c5ccccc5)CC4)CC3)cn2)cc1
c: c1ccc(/N=N\c2ccc(N3CCN([C@H]4CC[C@@H](c5ccccc5)CC4)CC3)cn2)cc1
Prompt line: Rank ascending by half-life at 500 µM. Note for the reader: the ranking is given by listing the labels in the order requested.
Response line: c, b, a
